Data origin: ChEMBL document CHEMBL5154755

# Tested on: Bel-7402
# PROTOCOL: cells
# DETAILS: Homo sapiens, Bel-7402, 72 h, read-out: INH
The reader will find reported inhibition at 10 µM values listed item by item below.
Enter your answer as a number in %; do not include the unit.

Record lookup: for Bel-7402, what inhibition at 10 µM belongs to C[C@H](Nc1ncnc2[nH]cnc12)c1nn(-c2ccncc2)c2cc(F)ccc12 ?
16

Record lookup: for Bel-7402, what inhibition at 10 µM belongs to C[C@H](Nc1ncnc(N)c1C#N)c1nn(-c2cccnc2)c2cc(F)ccc12 ?
-4

Record lookup: for Bel-7402, what inhibition at 10 µM belongs to C[C@H](Nc1ncnc2[nH]cnc12)c1nn(-c2ccc(C#N)cc2)c2cc(F)ccc12 ?
0

Record lookup: for Bel-7402, what inhibition at 10 µM belongs to C[C@H](Nc1ncnc2[nH]cnc12)c1nn(-c2ccccn2)c2cc(F)ccc12 ?
7

Record lookup: for Bel-7402, what inhibition at 10 µM belongs to CC[C@H](Nc1nc(N)nc(N)c1C#N)c1nn(-c2cccnc2)c2cc(Cl)ccc12 ?
56

Record lookup: for Bel-7402, what inhibition at 10 µM belongs to Cc1ccc2c(c1)c([C@H](C)Nc1ncnc3[nH]cnc13)nn2-c1cccnc1 ?
-10

Record lookup: for Bel-7402, what inhibition at 10 µM belongs to C[C@H](Nc1ncnc2[nH]cnc12)c1nn(-c2cccnc2)c2ccc(F)cc12 ?
-22
